Experiment: Solubility screening of Formula (I) in crystallization solvents at RT and 50° C. (TABLE 3)
Type: physicochemical
Details: c-hexane, 50 °C, organic solvent or mixture, thermodynamic from solid, c-Hexane; 50° C.; read-out: Solubility Range
result_type: solubility

Query: Determine its reported solubility: CC[C@H](C)C(=O)N1CCC(NC(=O)Nc2ccc(OC(F)(F)F)c(F)c2)CC1
Reply: < 1170 µg/mL

====

Assay: Solubility screening of Formula (I) in crystallization solvents at RT and 50° C. (TABLE 3)
Format: physicochemical
Settings: methyl isobutyl ketone (MIBK), organic solvent or mixture, thermodynamic from solid, MIBK; RT; read-out: Nominal Solubility
result_type: solubility (mg/mL)
The reply should contain only the number, in mg/mL.

Query: Determine its reported solubility: CC[C@H](C)C(=O)N1CCC(NC(=O)Nc2ccc(OC(F)(F)F)c(F)c2)CC1
Reply: 48
